What follows is a record of pIC50 for Btk enzyme (His-tagged, full-length) (Homo sapiens, UniProt Q06187).
pIC50: −log10 of the molar value.
outcome-measure: pIC50

Look over these answered cases.
[[record]]
chemical_structure = "CN(C)c1ccc2c(c1)CCN(c1cccc(-c3cc(Nc4ccc(C(=O)N5CCOCC5)cn4)c(=O)n(C)c3)c1)C2=O"
study_target = "Btk enzyme (His-tagged, full-length) (Homo sapiens, UniProt Q06187)"
outcome_measure = "pIC50"
measured_value = 6.38

[[record]]
chemical_structure = "CN(C)c1ccc2c(c1)CCN(c1cccc(-c3cc(Nc4ccc(C(=O)N5CCOCC5)cn4)c(=O)n(C)c3)c1CO)C2=O"
study_target = "Btk enzyme (His-tagged, full-length) (Homo sapiens, UniProt Q06187)"
outcome_measure = "pIC50"
measured_value = 7.40


A = CN(C)c1ccc2c(=O)n(-c3cccc(-c4cc(Nc5ccc(C(=O)N6CCOCC6)cn5)c(=O)n(C)c4)c3)ccc2c1
B = Cc1c(-c2cc(Nc3ccc(C(=O)N4CCOCC4)cn3)c(=O)n(C)c2)cccc1-n1ccc2cc(N(C)C)ccc2c1=O
Enquiry: Hello, I am sorting some records. Could you say if A or B has the smaller pIC50 value? Select an item and report its label.
Return: B
